Target: Glucose transporter (Leishmania mexicana)
Test: ST_JUDE_LEISH: Cytotoxicity at 2uM final concentration against transgenic Leishmania Mexicana promastigotes LmGT2 that are glucose transport deficient and complemented with the L. Mexicana glucose transporter 2. Activity is measured by DNA content using SYBR green in vitro
Format: functional
Assay Metric: inhibition (%)
Answer in %, number only, no unit symbol.

Compound	Unit Of Measure	inhibition
c1ccc(CN2CCc3cc4nccc(N5CCNCC5)c4cc32)cc1	%	0.88
FC(F)(F)c1ccc2[nH]c(-c3ccc(-c4cccc(CNCC5CCCO5)c4)s3)nc2c1 (centres undefined)	%	2.21
CC(CN(C)C)C(=O)Nc1ccc(-c2csc(-c3nc4ccccc4[nH]3)c2)cc1 (centres undefined)	%	3.09
Oc1ccc2[nH]cc(C3CCN(CCCNCc4ccc(-c5ccccc5)cc4)CC3)c2c1	%	2.61
Cc1cc(OCCCN2CCCCC2)ccc1NC(=O)COc1ccc(Cl)cc1C(=O)c1cc(Cl)cc(C#N)c1	%	5.79
CN1CCC(Oc2ccc(CN3CC[C@H](NC(=O)c4cc(F)cc(F)c4)C3)c3ccccc23)C1 (some centres undefined)	%	3.76

q: Specify measured inhibition for COc1ccc(CCNC(=O)c2ccccc2O)cc1-c1ccc(C(C)(C)C)cc1 .
a: 3.39

q: Specify measured inhibition for COc1cccc(-c2ccc3ccnc(N)c3c2)c1 .
a: 2.03

q: Specify measured inhibition for S=C(Nc1ccc(Cl)cc1)Nc1ccc(Nc2ccccc2)cc1 .
a: 5

q: Specify measured inhibition for CCN(c1cc(C)nc(Nc2ccc(Cl)cc2)n1)[C@H]1CCN(Cc2ccccc2)C1 .
a: 6.41

q: Specify measured inhibition for CC(=O)Nc1ccc(OCCCN(Cc2ccccc2OC(F)(F)F)c2ccc(C(F)(F)F)c(C#N)c2)c(Cl)c1 .
a: 1.86

Hey, just so you know, these numbers are from ChEMBL document CHEMBL3433997.
